These entries and their values trace back to patent US9951058B2.

- assayProtocol: Cytotoxicity (CC50) in multicycle CPE reduction assay, MTS
- studyConditions: human
CC50 at 3 days values by entry
readout: CC50 at 3 days

| compound | result |
| --- | --- |
| CC(C)c1ccc2c(c1)OC1(O)c3ccccc3C(=O)C21NC(=O)CNC(=O)OC(C)(C)C (stereo not drawn) | > 10 µg/mL |
| CC(C)c1ccc2c(c1)OC1(O)c3ccccc3C(=O)C21NC(=O)C(=O)CCc1ccccc1 (stereo not drawn) | > 10 µg/mL |
| CC(C)c1ccc2c(c1)OC1(O)c3ccccc3C(=O)C21NC(=O)C(=O)N(C)C (stereo not drawn) | > 10 µg/mL |
